# log10 of CC50 at 96 h per entry
# protocol_summary: Cytotoxicity against Homo sapiens (human) MT4 cells after 4 days by MTT assay
# Type: cell-based
recorded_endpoint: log10 of CC50 at 96 h (log10 of the value in µg/mL)

>>> data_value("C/C(=N\\NC(=O)COc1cccc2ccccc12)c1ccc(Br)cc1")
1.89
>>> data_value("O=C(COc1cccc2ccccc12)N/N=C/c1c[nH]c2ccccc12")
1.71
>>> data_value("O=C(COc1cccc2ccccc12)N/N=C/c1ccccc1O")
0.72
>>> data_value("COc1ccc(OC)c(/C=N/NC(=O)COc2cccc3ccccc23)c1")
1.28
>>> data_value("COc1ccc(/C=N/NC(=O)COc2cccc3ccccc23)cc1O")
0.85
>>> data_value("O=C(COc1cccc2ccccc12)N/N=C/c1ccc(O)cc1")
1.42
>>> data_value("O=C(COc1cccc2ccccc12)N/N=C/c1ccc([N+](=O)[O-])cc1")
1.94
>>> data_value("O=C(COc1cccc2ccccc12)N/N=C/c1cccc([N+](=O)[O-])c1")
1.08
>>> data_value("O=C(COc1cccc2ccccc12)N/N=C/c1ccc(Cl)cc1")
1.94
>>> data_value("O=C(COc1cccc2ccccc12)N/N=C/c1ccc(F)cc1")
1.81
>>> data_value("O=C(COc1cccc2ccccc12)N/N=C/c1ccccc1Br")
1.06
>>> data_value("C/C(=N\\NC(=O)COc1cccc2ccccc12)c1cccc([N+](=O)[O-])c1")
1.08
>>> data_value("O=C(COc1cccc2ccccc12)N/N=C/c1ccc(Br)cc1")
2.03
>>> data_value("O=C(COc1cccc2ccccc12)N/N=C/c1cccc(O)c1")
1.51
>>> data_value("CCOc1ccc(/C=N/NC(=O)COc2cccc3ccccc23)cc1O")
0.79
>>> data_value("C/C(=N\\NC(=O)COc1cccc2ccccc12)c1ccccc1Br")
1.90
>>> data_value("O=C(COc1cccc2ccccc12)N/N=C/c1ccccc1Cl")
1.75
>>> data_value("C/C(=N\\NC(=O)COc1cccc2ccccc12)c1ccc([N+](=O)[O-])cc1")
1.95
>>> data_value("C/C(=N\\NC(=O)COc1cccc2ccccc12)c1ccc(O)cc1O")
1.78
>>> data_value("C/C(=N\\NC(=O)COc1cccc2ccccc12)c1ccccc1")
2.02
>>> data_value("O=C(COc1cccc2ccccc12)N/N=C/c1cccc(Br)c1")
1.94

Source of measurements: ChEMBL document CHEMBL3045401
